Sourced from ChEMBL document CHEMBL4699582

- EXPERIMENT_NOTES: Oral bioavailability in Sprague-Dawley rat at 6 mg/kg, administered as single dose by LC-MS/MS analysis
- Assay type: ADME, organism-based
- TEST_CONTEXT: in vivo
ATTRIBUTE_MEASURED: bioavailability (%)
Give bare numbers, in %.

# get_value(readout='bioavailability', item= "C[C@H]1CN(C2CCN(c3nc(N)n[nH]3)CC2)[C@@H](Cc2ccc(Cl)cc2)CO1" )
107

----------
- EXPERIMENT_NOTES: Volume of distribution at steady state in Sprague-Dawley rat at 2 mg/kg, iv administered as single bolus dose measured upto 24 hrs by LC-MS/MS analysis
- Assay type: ADME, organism-based
- TEST_CONTEXT: in vivo, read-out: Vdss
ATTRIBUTE_MEASURED: Vd (L/kg)
Numbers only, in L/kg.

Give the measured Vd of "C[C@H]1CN(C2CCN(c3nc(N)n[nH]3)CC2)[C@@H](Cc2ccc(Cl)cc2)CO1" .
1.82

----------
- EXPERIMENT_NOTES: Clearance (0 to infinity) in Balb/c mouse at 3 mg/kg, iv administered as single bolus dose by LC-MS/MS analysis
- Assay type: ADME, organism-based
- TEST_CONTEXT: in vivo
ATTRIBUTE_MEASURED: clearance (mL/min/kg)
Give bare numbers, in mL/min/kg.

I am curious: what clearance value has been reported for "C[C@H]1CN(C2CCN(c3nc(N)n[nH]3)CC2)[C@@H](Cc2ccc(Cl)cc2)CO1" ?
5.83

----------
- EXPERIMENT_NOTES: Elimination half-life in Beagle dog at 3 mg/kg, iv administered as single bolus dose by LC-MS/MS analysis
- Format: ADME, organism-based, Canis lupus familiaris
- TEST_CONTEXT: in vivo, read-out: beta t1/2 (converted)
ATTRIBUTE_MEASURED: half-life (h)
Answers are plain numbers, in h.

// half-life lookup, key: "C[C@H]1CN(C2CCN(c3nc(N)n[nH]3)CC2)[C@@H](Cc2ccc(Cl)cc2)CO1"
21.9

----------
- EXPERIMENT_NOTES: Clearance (0 to infinity) in Sprague-Dawley rat at 2 mg/kg, iv administered as single bolus dose by LC-MS/MS analysis
- Type: ADME, organism-based
- TEST_CONTEXT: in vivo
ATTRIBUTE_MEASURED: clearance (mL/min/kg)
One number for each entry, in mL/min/kg.

Looking for the measured clearance of "C[C@H]1CN(C2CCN(c3nc(N)n[nH]3)CC2)[C@@H](Cc2ccc(Cl)cc2)CO1" , can you help?
5.67

----------
- EXPERIMENT_NOTES: AUC (0 to 24 hrs) in Sprague-Dawley rat at 2 mg/kg, iv administered as single bolus dose by LC-MS/MS analysis
- Format: ADME, organism-based
- Parameters: time < 24 hr, route intravenous, dose 2 mg/kg
- TEST_CONTEXT: in vivo
ATTRIBUTE_MEASURED: AUC(0-t) at 24 h (ng·h/mL)
Give bare numbers, in ng·h/mL.

For the compound shown here, "C[C@H]1CN(C2CCN(c3nc(N)n[nH]3)CC2)[C@@H](Cc2ccc(Cl)cc2)CO1" , give the reported AUC(0-t) at 24 h.
5560

----------
- EXPERIMENT_NOTES: Elimination half-life in Sprague-Dawley rat at 2 mg/kg, iv administered as single bolus dose by LC-MS/MS analysis
- Assay type: ADME, organism-based
- TEST_CONTEXT: in vivo, read-out: beta t1/2 (converted)
ATTRIBUTE_MEASURED: half-life (h)
Give bare numbers, in h.

Reported half-life, compound "C[C@H]1CN(C2CCN(c3nc(N)n[nH]3)CC2)[C@@H](Cc2ccc(Cl)cc2)CO1" : ____
4.49
